Values were extracted from patent US9580396B2.

- Target entity: soluble human BACE1 catalytic domain (Homo sapiens (Human))
- Sequence (P56817 75-416): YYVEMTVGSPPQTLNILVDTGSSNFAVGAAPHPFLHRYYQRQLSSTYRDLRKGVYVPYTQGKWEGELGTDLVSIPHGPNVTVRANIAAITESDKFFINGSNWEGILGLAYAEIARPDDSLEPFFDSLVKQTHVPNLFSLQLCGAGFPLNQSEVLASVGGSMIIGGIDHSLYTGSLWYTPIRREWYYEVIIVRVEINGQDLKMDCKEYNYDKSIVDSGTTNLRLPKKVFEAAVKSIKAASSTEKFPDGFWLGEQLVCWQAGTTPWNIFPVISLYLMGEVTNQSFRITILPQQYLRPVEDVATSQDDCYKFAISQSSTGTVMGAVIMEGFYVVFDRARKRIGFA
Result type: Ki
Phrase the answer as number then unit, nothing more needed.

{"Compound": "CN1C(=N)N[C@@]2(CCOc3ccc(NC(=O)c4cnc(OCC(F)(F)F)cn4)cc32)CS1(=O)=O [Example 2g]", "Recorded result": "70 nM"}
{"Compound": "Cc1nc(C(=O)Nc2ccc3c(c2)[C@]2(CCC3)CS(=O)(=O)N(C)C(=N)N2)co1 [Example 5h]", "Recorded result": "108 nM"}
{"Compound": "CN1C(=N)N[C@@]2(CCOc3ccc(NC(=O)C(F)F)cc32)CS1(=O)=O [Example 1d]", "Recorded result": "2280 nM"}
{"Compound": "COc1cnc(C(=O)Nc2ccc3c(c2)[C@]2(CCC3)CS(=O)(=O)N(C)C(=N)N2)c(C)n1 [Example 5p]", "Recorded result": "224 nM"}
{"Compound": "CN1C(=N)N[C@@]2(CCCc3ccc(NC(=O)c4ncc(C(F)(F)F)cn4)cc32)CS1(=O)=O [Example 5j]", "Recorded result": "468 nM"}

Hi, could you look up Ki for each item in my list?
1. CN1C(=N)N[C@@]2(CCCc3ccc(NC(=O)c4cnc(C(F)(F)F)cn4)cc32)CS1(=O)=O [Example 5s]
2. CN1C(=N)N[C@@]2(CCCc3ccc(NC(=O)c4ccc(OCF)cn4)cc32)CS1(=O)=O [Example 5g]
3. CN1C(=N)N[C@@]2(CCCc3ccc(NC(=O)c4ncc(Cl)cc4F)cc32)CS1(=O)=O [Example 5k]

1: 253 nM; 2: 77 nM; 3: 54 nM

* * *

Could you please report measured Ki for the items listed next?
- Target entity: purified human autoBACE-2 (Homo sapiens (Human), UniProt Q9Y5Z0)
- Test name: BACE-2 Assay (BACE-HTRF assay)
- Format: biochemical
- Assay context: Ki calculated from IC50 using the Cheng-Prusoff equation; QSY7-EISEVNLDAEFC-Eu-amide substrate, pH 5.0; read-out: BACE2 Ki
- Description: Inhibitor IC50s at purified human autoBACE-2 are determined in a time-resolved endpoint proteolysis assay that measures hydrolysis of the QSY7-[…]-Eu-amide FRET peptide substrate (BACE-HTRF assay). […] Following laser excitation of sample wells at 320 nm, the fluorescence signal at 620 nm is collected for 400 ms following a 50 μs delay on a RUBYstar HTRF plate reader (BMG Labtechnologies). […] The Ki values are calculated from the IC50 using the Cheng-Prusoff equation.
Give bare numbers, in nM.

Would you please look over these solved cases?
{"Structure as smiles": "COc1ccc(C(=O)Nc2ccc3c(c2)[C@]2(COC3)CS(=O)(=O)N(C)C(=N)N2)nc1", "Target entity": "purified human autoBACE-2 (Homo sapiens (Human), UniProt Q9Y5Z0)", "Ki, nM": 354}
{"Structure as smiles": "CN1C(=N)N[C@@]2(CCCc3ccc(NC(=O)c4cc5ccccn5n4)cc32)CS1(=O)=O", "Target entity": "purified human autoBACE-2 (Homo sapiens (Human), UniProt Q9Y5Z0)", "Ki, nM": 385}
{"Structure as smiles": "C#CCOc1cnc(C(=O)Nc2ccc3c(c2)[C@]2(CCC3)CS(=O)(=O)N(C)C(=N)N2)cn1", "Target entity": "purified human autoBACE-2 (Homo sapiens (Human), UniProt Q9Y5Z0)", "Ki, nM": 77}

// input: 6 compounds below; output: Ki for each
1. CN1C(=N)N[C@@]2(CCOc3ccc(NC(=O)c4cc5ccccn5n4)cc32)CS1(=O)=O
2. CN1C(=N)N[C@@]2(CCOc3ccc(NC(=O)c4cn5cc(C#N)ccc5n4)cc32)CS1(=O)=O
3. CN1C(=N)N[C@@]2(CCCc3ccc(NC(=O)c4ccc(OC(F)F)cn4)cc32)CS1(=O)=O
4. C#CCOc1cnc(C(=O)Nc2ccc3c(c2)[C@]2(CCO3)CS(=O)(=O)N(C)C(=N)N2)cn1
5. CN1C(=N)N[C@@]2(CCCc3ccc(NC(=O)c4ccc(Cl)cn4)cc32)CS1(=O)=O
6. CN1C(=N)N[C@@]2(CCCc3ccc(NC(=O)c4ncc(C(F)(F)F)cn4)cc32)CS1(=O)=O

[337, 6910, 126, 138, 15, 423]

// for each compound below, give its Ki
1. CN1C(=N)N[C@@]2(CCOc3ccc(NC(=O)c4cnc(OCCF)cn4)cc32)CS1(=O)=O
2. CN1C(=N)N[C@@]2(CCOc3ccc(NC(=O)c4ccc(OCF)cn4)cc32)CS1(=O)=O
3. COc1cnc(C(=O)Nc2ccc3c(c2)[C@]2(CCC3)CS(=O)(=O)N(C)C(=N)N2)c(C)c1
4. COCC(=O)Nc1ccc2c(c1)[C@]1(CCO2)CS(=O)(=O)N(C)C(=N)N1
5. Cc1nc(C(=O)Nc2ccc3c(c2)[C@]2(CCO3)CS(=O)(=O)N(C)C(=N)N2)no1

572
59
17
341
31

I have 2 compounds here; please give me Ki for each one.
1. CN1C(=N)N[C@@]2(COCc3ccc(NC(=O)c4ccc(Cl)cn4)cc32)CS1(=O)=O
2. CN1C(=N)N[C@@]2(CCCc3ccc(NC(=O)c4cnc(OCCF)cn4)cc32)CS1(=O)=O

58
487

* * *

pKi, soluble human BACE1 catalytic domain (Homo sapiens (Human), UniProt P56817): measured values
Answers are plain numbers, as −log10 of the molar value.

Example compounds with recorded pKi:
{"Structure as smiles": "CN1C(=N)N[C@@]2(CCCc3ccc(NC(=O)c4cnsn4)cc32)CS1(=O)=O", "Target entity": "soluble human BACE1 catalytic domain (Homo sapiens (Human), UniProt P56817)", "pKi": 6.58}
{"Structure as smiles": "Cc1nc(C(=O)Nc2ccc3c(c2)[C@]2(CCO3)CS(=O)(=O)N(C)C(=N)N2)co1", "Target entity": "soluble human BACE1 catalytic domain (Homo sapiens (Human), UniProt P56817)", "pKi": 6.85}
{"Structure as smiles": "CN1C(=N)N[C@@]2(CCCc3ccc(NC(=O)c4ccc(C#N)cn4)cc32)CS1(=O)=O", "Target entity": "soluble human BACE1 catalytic domain (Homo sapiens (Human), UniProt P56817)", "pKi": 7.72}
{"Structure as smiles": "CN1C(=N)N[C@@]2(COCc3ccc(NC(=O)c4ccc(Cl)cn4)cc32)CS1(=O)=O", "Target entity": "soluble human BACE1 catalytic domain (Homo sapiens (Human), UniProt P56817)", "pKi": 6.57}

Value sought for every listed compound: pKi.
1. COc1cnc(C(=O)Nc2ccc3c(c2)[C@]2(CCC3)CS(=O)(=O)N(C)C(=N)N2)cn1
2. Cc1nc(C(=O)Nc2ccc3c(c2)[C@]2(CCO3)CS(=O)(=O)N(C)C(=N)N2)no1
3. C#CCOc1cnc(C(=O)Nc2ccc3c(c2)[C@]2(CCC3)CS(=O)(=O)N(C)C(=N)N2)cn1

6.84
6.44
7.96

The following compounds each have a reported value; give each one's pKi.
1. CN1C(=N)N[C@@]2(CCOc3ccc(NC(=O)c4cn5cc(C#N)ccc5n4)cc32)CS1(=O)=O
2. CN1C(=N)N[C@@]2(CCCc3ccc(NC(=O)c4ccc(C(F)(F)F)cn4)cc32)CS1(=O)=O
3. CN1C(=N)N[C@@]2(CCOc3ccc(NC(=O)c4cnsn4)cc32)CS1(=O)=O
4. CN1C(=N)N[C@@]2(CCOc3ccc(NC(=O)c4cnc(C(F)(F)F)cn4)cc32)CS1(=O)=O

[6.22, 7.26, 6.62, 6.52]

What value of pKi has been recorded for this entry: CN1C(=N)N[C@@]2(CCCc3ccc(NC(=O)c4cnc(OCCF)cn4)cc32)CS1(=O)=O
6.59

* * *

For purified human autoBACE-2 (Homo sapiens (Human)), measured Ki is reported for the entries below.

Answered examples (3):
{"Compound": "CN1C(=N)N[C@@]2(CCOc3ccc(NC(=O)C(F)F)cc32)CS1(=O)=O [Example 1d]", "Ki": "0.728 µM"}
{"Compound": "COc1ccc(C(=O)Nc2ccc3c(c2)[C@]2(CCO3)CS(=O)(=O)N(C)C(=N)N2)nc1 [Example 1b]", "Ki": "0.13 µM"}
{"Compound": "CN1C(=N)N[C@@]2(CCCc3ccc(NC(=O)c4ccn(C(F)F)n4)cc32)CS1(=O)=O [Example 5w]", "Ki": "0.003 µM"}

Consider the compound CN1C(=N)N[C@@]2(CCOc3ccc(NC(=O)c4ccc(C#N)cn4)cc32)CS1(=O)=O [Example 2c] and give its measured Ki.
0.051 µM

* * *

# pKi per entry for soluble human BACE1 catalytic domain (Homo sapiens (Human))
Numbers only, as −log10 of the molar value.

Solved cases (5 shown):
{"Compound": "CN1C(=N)N[C@@]2(CCCc3ccc(NC(=O)c4ccn(C(F)F)n4)cc32)CS1(=O)=O [Example 5w]", "Target entity": "soluble human BACE1 catalytic domain (Homo sapiens (Human))", "pKi": 7.70}
{"Compound": "Cc1cc(C#N)cnc1C(=O)Nc1ccc2c(c1)[C@]1(CCC2)CS(=O)(=O)N(C)C(=N)N1 [Example 5q]", "Target entity": "soluble human BACE1 catalytic domain (Homo sapiens (Human))", "pKi": 8.05}
{"Compound": "Cc1nc(C(=O)Nc2ccc3c(c2)[C@]2(CCC3)CS(=O)(=O)N(C)C(=N)N2)no1 [Example 5f]", "Target entity": "soluble human BACE1 catalytic domain (Homo sapiens (Human))", "pKi": 6.50}
{"Compound": "CN1C(=N)N[C@@]2(CCCc3ccc(NC(=O)c4ccc(OC(F)(F)F)cn4)cc32)CS1(=O)=O [Example 5d]", "Target entity": "soluble human BACE1 catalytic domain (Homo sapiens (Human))", "pKi": 7.26}
{"Compound": "CN1C(=N)N[C@@]2(CCOc3ccc(NC(=O)c4cnc(OCCF)cn4)cc32)CS1(=O)=O [Example 2w]", "Target entity": "soluble human BACE1 catalytic domain (Homo sapiens (Human))", "pKi": 6.64}

// for each compound in input: emit pKi
1. COc1ccc(C(=O)Nc2ccc3c(c2)[C@]2(CCO3)CS(=O)(=O)N(C)C(=N)N2)nc1 [Example 1b]
2. CN1C(=N)N[C@@]2(CCOc3ccc(NC(=O)c4ncc(Cl)cc4F)cc32)CS1(=O)=O [Example 2e]
3. CN1C(=N)N[C@@]2(CCOc3ccc(NC(=O)c4ccc(OC(F)F)cn4)cc32)CS1(=O)=O [Example 2u]

1: 6.63; 2: 7.31; 3: 7.36
